// provenance: ChEMBL document CHEMBL4613235

Each entry below carries its recorded inhibition.
molecular target: NAD-dependent protein deacetylase sirtuin-3, mitochondrial (Homo sapiens) (UniProt Q9NTG7); assay: Inhibition of recombinant N-terminal His-tagged human sirtuin 3 (102 to 399 residues) expressed in Escherichia coli at 200 uM using fluor de lys SIRT2 as substrate preincubated with substrate for 5 mins followed by enzyme addition and measured after 1 hr in presence of NAD+ by fluorescence based assay relative to control
Sequence (Q9NTG7 whole entry, the tested form may be a part): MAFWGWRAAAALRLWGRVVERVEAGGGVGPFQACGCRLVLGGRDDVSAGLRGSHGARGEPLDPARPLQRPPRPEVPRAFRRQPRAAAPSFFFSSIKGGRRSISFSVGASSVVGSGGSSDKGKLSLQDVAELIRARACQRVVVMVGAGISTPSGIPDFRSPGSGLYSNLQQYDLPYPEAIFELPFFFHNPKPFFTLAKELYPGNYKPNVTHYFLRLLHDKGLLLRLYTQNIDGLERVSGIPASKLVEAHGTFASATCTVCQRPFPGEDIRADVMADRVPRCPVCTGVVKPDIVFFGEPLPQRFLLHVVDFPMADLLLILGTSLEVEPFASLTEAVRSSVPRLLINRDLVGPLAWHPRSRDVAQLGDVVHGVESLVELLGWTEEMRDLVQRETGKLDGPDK
Response body: numeric value in %, unit text excluded.

Sample answers from the record:
>>> experimental_value("CCCCCc1cc(=O)c2cc(Cl)cc(Br)c2o1")
4.5
>>> experimental_value("O=S1(=O)NC(CCc2cccc(Br)c2)Nc2c(Br)cc(Br)cc21 (configuration not stated)")
9.9
>>> experimental_value("O=S1(=O)NC(CCc2ccccc2)Nc2c(Br)cc(Br)cc21 (configuration not stated)")
54

// Input: "O=C1c2ccccc2S(=O)(=O)N1CCc1ccccc1" . Output its inhibition only.
14

Using the record for "O=C1c2ccc(Br)cc2S(=O)(=O)N1CCc1ccccc1" , state its measured inhibition.
1.6

Provide one value: measured inhibition of "O=c1cc(Cc2ccccc2)[nH]c2c(Br)cc(Cl)cc12"
41

Annotate the molecule "CCOC(=O)CCCN1C(=O)c2ccccc2S1(=O)=O" with its measured inhibition.
7.2

Recall and state the measured inhibition for "O=S1(=O)N=C(CCc2cccc(Br)c2)Nc2c(Br)cc(Br)cc21" .
3.2

Tell us which inhibition value is on record for "O=C1c2ccc(Br)cc2S(=O)(=O)N1CCc1ccc(O)cc1"
15

----------
biological target: NAD-dependent protein deacetylase sirtuin-2 (Homo sapiens) (UniProt Q8IXJ6); experiment: Inhibition of recombinant GST-tagged human SIRT2 expressed in Escherichia coli at 200 uM using FLUOR DE LYS SIRT2 as substrate preincubated with substrate for 5 mins followed by enzyme addition and measured after 1 hr in presence of NAD+ by fluorescence based assay relative to control
Sequence (Q8IXJ6 whole entry): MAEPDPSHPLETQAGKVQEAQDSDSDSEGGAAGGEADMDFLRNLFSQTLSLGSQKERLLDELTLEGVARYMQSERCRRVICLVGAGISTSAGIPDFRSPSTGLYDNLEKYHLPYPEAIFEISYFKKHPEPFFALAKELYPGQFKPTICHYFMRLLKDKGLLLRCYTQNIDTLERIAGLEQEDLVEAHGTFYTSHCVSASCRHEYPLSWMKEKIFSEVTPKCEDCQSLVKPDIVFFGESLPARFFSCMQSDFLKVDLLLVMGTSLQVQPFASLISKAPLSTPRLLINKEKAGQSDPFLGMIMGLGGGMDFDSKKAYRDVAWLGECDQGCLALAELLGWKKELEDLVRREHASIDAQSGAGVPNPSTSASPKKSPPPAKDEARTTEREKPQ
readout.type: inhibition (%)
Note: unit % is implicit; provide only the numeric part.

>>> experimental_value("O=C1c2ccc(Br)cc2S(=O)(=O)N1CCc1ccccc1")
4.7
>>> experimental_value("O=S1(=O)N=C(CCc2cccc(Br)c2)Nc2c(Br)cc(Br)cc21")
24
>>> experimental_value("O=c1cc(CCc2ccccc2)oc2c(Br)cc(Cl)cc12")
75
>>> experimental_value("O=C1c2ccccc2S(=O)(=O)N1CCCc1cccnc1")
12
>>> experimental_value("O=S1(=O)NC(CCc2ccccc2)=Cc2ccc(Br)cc21")
35

Retrieve inhibition measured for "CCCCCN1C(=O)c2ccc(Br)cc2S1(=O)=O" and print it.
6.9

Entry "COC(=O)CCCCc1cc(=O)c2cc(Cl)cc(Br)c2[nH]1" needs its inhibition filled in; supply it.
53

Please report inhibition for the following molecule: "CCCCC1=Cc2ccccc2S(=O)(=O)N1"
12

Name the recorded inhibition of the molecule listed here: "O=C1c2ccccc2S(=O)(=O)N1CCc1ccccc1"
34

Quote inhibition reported for O=S1(=O)NC(CCc2ccccc2)Nc2c(Br)cc(Br)cc21 (centres undefined) please.
47

Retrieve inhibition measured for "CCCCCN1C(=O)c2ccccc2S1(=O)=O" and print it.
34

----------
molecular target: NAD-dependent protein deacetylase sirtuin-3, mitochondrial (Homo sapiens) (UniProt Q9NTG7); assay: Inhibition of recombinant N-terminal His-tagged human sirtuin 3 (102 to 399 residues) expressed in Escherichia coli at 200 uM using fluor de lys SIRT2 as substrate preincubated with substrate for 5 mins followed by enzyme addition and measured after 1 hr in presence of NAD+ by fluorescence based assay relative to control
readout.type: inhibition

Known inhibition results, listed for orientation:
>>> experimental_value("CCCCCC1Nc2c(Br)cc(Br)cc2S(=O)(=O)N1 (stereo not drawn)")
"5.8%"
>>> experimental_value("O=c1ccc2cc(CCC3Nc4c(Br)cc(Br)cc4S(=O)(=O)N3)ccc2[nH]1 (stereo not drawn)")
"28%"

Okay, next one:
Return inhibition (reported value) for this compound: "O=C1c2ccccc2S(=O)(=O)N1CCCc1cccnc1"
14%
